Listed below: Kd values for each entry.
molecular target: human RORγt ligand binding domain (RORγt LBD) (Homo sapiens (Human), UniProt P51449); assay: RORγt ThermoFluor® assay (thermal shift binding); conditions: read-out: ThermoFluor® Assay, Kd
Sequence (P51449 other isoform, or with tags, fused parts or gaps): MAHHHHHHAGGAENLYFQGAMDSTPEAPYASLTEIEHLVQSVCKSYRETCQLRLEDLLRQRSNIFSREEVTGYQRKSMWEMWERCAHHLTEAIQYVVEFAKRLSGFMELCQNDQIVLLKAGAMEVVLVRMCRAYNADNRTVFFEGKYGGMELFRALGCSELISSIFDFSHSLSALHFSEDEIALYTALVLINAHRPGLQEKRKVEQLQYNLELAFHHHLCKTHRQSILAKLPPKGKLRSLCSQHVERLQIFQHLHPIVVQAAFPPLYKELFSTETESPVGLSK
# output: bare number, implied unit nM

Using the record for C[C@H](CO)NC(=O)c1nc(C(=O)N2CCC[C@@H]2C)c(-c2cnc(N[C@@H](C)C(F)(F)F)cc2C(F)F)s1 [Example 284] , state its measured Kd.
8.1

Using the record for C[C@H]1CC(F)(F)CN1C(=O)c1nc(C(=O)NCC(C)(C)O)sc1-c1cnc(NC2CCCCC2)cc1C(F)(F)F [Example 11] , state its measured Kd.
2.6

###

Listed below: IC50 values for each entry.
molecular target: full-length human RORγt (Homo sapiens (Human)); test: RORγt (full-length human) reporter assay, Conditions B or C; format: cell-based; conditions: Conditions B or C; read-out: RORγt (FL) Reporter Assay B or C, IC50
# output: bare number, implied unit nM

See these solved cases before continuing.
molecule | IC50 / nM
CC(C)(O)CNC(=O)c1nc(C(=O)N2C3CCC2CC3)c(-c2cnc(NC(C)(C)C)cc2C(F)(F)F)s1 [Example 79] | 8.3
CC[C@H](Nc1cc(C(F)F)c(-c2sc(C(=O)NC3CCS(=O)(=O)CC3)nc2C(=O)N2CCC[C@@H]2C)cn1)C(F)(F)F [Example 232] | 69

Using the record for C[C@H]1CCCN1C(=O)c1nc(C(=O)NCC(C)(C)O)sc1-c1cnc(NC2CCCC2)cc1C(F)(F)F [Example 38] , state its measured IC50.
15

Using the record for C[C@H](Nc1cc(C(F)(F)F)c(-c2sc(C(=O)NCC(C)(C)O)nc2C(=O)N2C3CCC2CC3)cn1)C1CCC1 (stereo in doubt) [Example 171] , state its measured IC50.
16

Using the record for C[C@H]1CC(F)(F)CN1C(=O)c1nc(C(=O)NCC(C)(C)O)sc1-c1cnc(NC(C)(C)C)cc1C(F)(F)F [Example 83] , state its measured IC50.
6.9

Using the record for C[C@H](O)[C@H](C)NC(=O)c1nc(C(=O)N2CCC[C@@H]2C)c(-c2cnc(NC(C)(C)C)cc2C(F)(F)F)s1 (relative stereo) [Example 236] , state its measured IC50.
47

###

Listed below: inhibition at 6 µM values for each entry.
target: full-length human RORγt (Homo sapiens (Human), UniProt P51449); assay: RORγt (full-length human) reporter assay, Conditions B or C; assay type: cell-based; conditions: read-out: RORγt (FL) Reporter Assay B or C, % inhibition @ 6 μM, Conditions B or C; @ 6 μM
Sequence (P51449 other isoform, or with tags, fused parts or gaps): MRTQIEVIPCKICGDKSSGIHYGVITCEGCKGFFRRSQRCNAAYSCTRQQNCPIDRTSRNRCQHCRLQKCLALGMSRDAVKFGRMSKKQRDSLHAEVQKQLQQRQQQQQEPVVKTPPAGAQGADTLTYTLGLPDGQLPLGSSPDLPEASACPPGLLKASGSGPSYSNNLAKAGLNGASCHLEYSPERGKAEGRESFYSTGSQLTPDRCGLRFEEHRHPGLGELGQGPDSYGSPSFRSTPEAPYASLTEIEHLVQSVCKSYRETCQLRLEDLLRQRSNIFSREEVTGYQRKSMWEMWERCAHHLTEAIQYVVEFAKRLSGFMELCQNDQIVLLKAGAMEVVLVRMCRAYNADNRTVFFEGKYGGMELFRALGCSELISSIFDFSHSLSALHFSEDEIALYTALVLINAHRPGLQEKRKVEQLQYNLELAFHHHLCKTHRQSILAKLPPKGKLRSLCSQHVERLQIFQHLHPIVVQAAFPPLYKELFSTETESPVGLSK

Using the record for CC(Nc1cc(C(F)(F)F)c(-c2sc(C(=O)NCC(C)(C)O)nc2C(=O)N2CCCC[C@@H]2C)cn1)C(F)(F)F (stereo partly drawn) , state its measured inhibition at 6 µM.
109%

Using the record for C[C@H]1CCCN1C(=O)c1nc(C(=O)NCC(C)(C)O)sc1-c1cnc(N[C@@H]2CCCCC2(F)F)cc1C(F)(F)F (relative stereo) , state its measured inhibition at 6 µM.
114%

Using the record for "C[C@H]1CCCN1C(=O)c1nc(C(=O)NCC(C)(C)O)sc1-c1cnc(NC2CCCC2)cc1C(F)(F)F" , state its measured inhibition at 6 µM.
108%

Using the record for "C[C@H](Nc1cc(C(F)(F)F)c(-c2sc(C(=O)NCC(C)(C)O)nc2C(=O)N2CCCC[C@@H]2C)cn1)C1CC1" , state its measured inhibition at 6 µM.
105%

Using the record for "C[C@H]1CCCCN1C(=O)c1nc(C(=O)NC2CCS(=O)(=O)CC2)sc1-c1cnc(NC2CCCC2)cc1C(F)(F)F" , state its measured inhibition at 6 µM.
123%

Using the record for "C[C@H]1CCCCN1C(=O)c1nc(C(=O)NCC(C)(C)O)sc1-c1cnc(NC2CCCC2)cc1C(F)(F)F" , state its measured inhibition at 6 µM.
106%

Using the record for "CC[C@H](Nc1cc(C(F)F)c(-c2sc(C(=O)N[C@@H]3CC[C@@H](O)C3)nc2C(=O)N2C3CCC2CC3)cn1)C(F)(F)F" , state its measured inhibition at 6 µM.
102%

Using the record for C[C@H]1CCCCN1C(=O)c1nc(C(=O)NCC(C)(C)O)sc1-c1cnc(N[C@@H]2CCCCC2(F)F)cc1C(F)(F)F (relative stereo) , state its measured inhibition at 6 µM.
111%

Using the record for "C[C@H](Nc1cc(C(F)F)c(-c2sc(C(=O)NCC(C)(C)O)nc2C(=O)N2CCC[C@@H]2C)cn1)C1CC1" , state its measured inhibition at 6 µM.
107%

###

Listed below: RORγt (FL) Reporter Assay B or C, % inhibition (value marked *) values for each entry.
target: full-length human RORγt (Homo sapiens (Human), UniProt P51449); assay: RORγt (full-length human) reporter assay, Conditions B or C; assay type: cell-based; conditions: Conditions B or C; marked *: footnote not given

See these solved cases before continuing.
molecule | endpoint-result
CC[C@H](Nc1cc(C(F)F)c(-c2sc(C(=O)NCC(C)(C)O)nc2C(=O)N2CCC[C@@H]2C)cn1)C1CC1 (relative stereo) | 94* %
C[C@H]1CCCN1C(=O)c1nc(C(=O)NCC(C)(C)O)sc1-c1cnc(NC2(C(F)(F)F)CCC2)cc1C(F)F | 105* %
CC(C)(O)CNC(=O)c1nc(C(=O)N2C3CCC2CC3)c(-c2cnc(NC3CCCC3)cc2C(F)F)s1 | 100* %

With those in mind, consider the next molecule.
Using the record for "CC(C)(O)CNC(=O)c1nc(C(=O)N2C3CCC2CC3)c(-c2cnc(NC(C3CC3)C3CC3)cc2C(F)F)s1" , state its measured RORγt (FL) Reporter Assay B or C, % inhibition (value marked *).
102* %

###

molecular target: full-length human RORγt (Homo sapiens (Human), UniProt P51449); test: RORγt (full-length human) reporter assay, Conditions B or C; type: cell-based; settings: Conditions B or C; read-out: RORγt (FL) Reporter Assay B or C, IC50
Listed below: log10 IC50 values for each entry.
All values: log10 IC50 [nM].

compound | log10 IC50
CC(Nc1cc(C(F)(F)F)c(-c2sc(C(=O)NCC(C)(C)O)nc2C(=O)N2CC(F)(F)C[C@@H]2C)cn1)C1CCC1 (stereo partly drawn) | 1.30
C[C@H]1CC(F)(F)CN1C(=O)c1nc(C(=O)N[C@@H]2COC[C@@H]2O)sc1-c1cnc(NC2(C)CCC2)cc1C(F)(F)F (relative stereo) | 1.53
C[C@H]1CCCN1C(=O)c1nc(C(=O)NCC(C)(C)O)sc1-c1cnc(NC(C)(C)C(F)(F)F)cc1C(F)(F)F | 1.15

With those in mind, consider the next compound.
Find the measured log10 IC50 of CC[C@H](Nc1cc(C(F)F)c(-c2sc(C(=O)N[C@H](C)[C@H](C)O)nc2C(=O)N2CCC[C@@H]2C)cn1)C(F)(F)F (relative stereo) with full-length human RORγt (Homo sapiens (Human), UniProt P51449) as test system.
1.65

###

biological target: human RORγt ligand binding domain (RORγt LBD) (Homo sapiens (Human)); assay: RORγt ThermoFluor® assay (thermal shift binding); conditions: read-out: ThermoFluor® Assay, Kd
parameter: log10 Kd (log10 of the value in nM)
All values: log10 Kd [nM].

compound | log10 Kd
C[C@H]1CCCN1C(=O)c1nc(C(=O)NC[C@@H](O)C(F)(F)F)sc1-c1cnc(NC(C)(C)C)cc1C(F)(F)F (relative stereo) [Example 354] | -0.01
C[C@H]1CCCN1C(=O)c1nc(C(=O)N2CCC(C)(O)C2)sc1-c1cnc(NC(C)(C)C)cc1C(F)(F)F (stereo partly shown) [Example 364] | 0.90
C[C@H]1CC(F)(F)CN1C(=O)c1nc(C(=O)NCC(C)(C)O)sc1-c1cnc(NC(C)(C)C)cc1C(F)(F)F [Example 83] | -0.26
CCC(C)(C)Nc1cc(C(F)F)c(-c2sc(C(=O)NCC(C)(C)O)nc2C(=O)N2CCC[C@@H]2C)cn1 [Example 96] | 0.08
CCC(C)(C)Nc1cc(C(F)F)c(-c2sc(C(=O)NCC(C)(C)O)nc2C(=O)N2CCCC[C@@H]2C)cn1 [Example 95] | -0.82

Using the record for C[C@H](Nc1cc(C(F)(F)F)c(-c2sc(C(=O)NCC(C)(C)O)nc2C(=O)N2C3CCC2CC3)cn1)C1CC1 [Example 51] , state its measured log10 Kd.
0.51

Using the record for CC(C)(O)CNC(=O)c1nc(C(=O)N2C3CCC2CC3)c(-c2cnc(NC3CCCC3)cc2C(F)F)s1 [Example 46] , state its measured log10 Kd.
0.62

###

Target: human RORγt ligand binding domain (RORγt LBD) (Homo sapiens (Human))
Assay: RORγt ThermoFluor® assay (thermal shift binding)
Settings: read-out: ThermoFluor® Assay, Kd
Procedure: […] Bar-coded assay plates are robotically loaded onto a thermostatically controlled PCR-type thermal block and then heated at a typical ramp-rate of 1° C./min for all experiments. Fluorescence was measured by continuous illumination with UV light (Hamamatsu LC6) supplied via fiber optic and filtered through a band-pass filter (380-400 nm; >6 OD cutoff). […] Images were collected at each temperature, and the sum of the pixel intensity in a given area of the assay plate was recorded versus temperature. […]
Mark condition met only for Kd values smaller than 1 nM; exact matches and larger values are condition not met.

Some entries whose results are on file:
compound | cat
C[C@H]1CCCCN1C(=O)c1nc(C(=O)NCC(C)(C)O)sc1-c1cnc(N[C@H]2CCCCC2(F)F)cc1C(F)(F)F (relative stereo) | condition met
C[C@H]1CCCN1C(=O)c1nc(C(=O)NCC(C)(C)O)sc1-c1cnc(NCC(C)(C)C)cc1C(F)F | condition not met
C[C@H]1CCCN1C(=O)c1nc(C(=O)NCC(C)(C)O)sc1-c1cnc(NC2CCCC2)cc1C(F)(F)F | condition not met
CC(C)(O)CNC(=O)c1nc(C(=O)N2CCC(F)CC2)c(-c2cnc(NC3CCCCC3)cc2C(F)F)s1 | condition not met
C[C@H](NC(=O)c1nc(C(=O)N2CCC[C@@H]2C)c(-c2cnc(NC(C)(C)C)cc2C(F)(F)F)s1)C(C)(C)O | condition not met
C[C@H](Nc1cc(C(F)(F)F)c(-c2sc(C(=O)NCC(C)(C)O)nc2C(=O)N2CC(F)(F)C[C@@H]2C)cn1)C(F)(F)F | condition not met
C[C@H]1CC(F)(F)CN1C(=O)c1nc(C(=O)N[C@H](C)C(C)(C)O)sc1-c1cnc(NC2(C)CCC2)cc1C(F)F | condition not met
C[C@H]1CCCN1C(=O)c1nc(C(=O)NC[C@H](O)C(F)(F)F)sc1-c1cnc(NC(C)(C)C)cc1C(F)(F)F (relative stereo) | condition not met

Hi there! Is Kd for "C[C@H]1CCCCN1C(=O)c1nc(C(=O)NCC(C)(C)O)sc1-c1cnc(NC2(C)CCC2)cc1C(F)(F)F" below 1 nM, do you know?
condition met

Hi there! Is Kd for "C[C@H]1CCCN1C(=O)c1nc(C(=O)N2CC(C)(O)C2)sc1-c1cnc(NC(C)(C)C)cc1C(F)F" below 1 nM, do you know?
condition not met

Hi there! Is Kd for "C[C@H]1CCCN1C(=O)c1nc(C(=O)NC2(CO)CC2)sc1-c1cnc(NC(C)(C)C)cc1C(F)(F)F" below 1 nM, do you know?
condition not met

Hi there! Is Kd for "C[C@H](CO)NC(=O)c1nc(C(=O)N2CCC[C@@H]2C)c(-c2cnc(NC(C)(C)C)cc2C(F)F)s1" below 1 nM, do you know?
condition not met

// data source = patent US10975068B2
